Catalogue of compounds with associated MIC
- Tested on: Salmonella typhi ATCC19430
- test_description: Antimicrobial MIC, agar dilution
- Type: cell-based
- test_parameters: Salmonella enterica, 18 h, read-out: Minimum inhibitory concentration (MIC)
Could you give me the number in µg/mL? Just the number is fine.

Answered examples (2):
COc1cc(/C=C/C(=O)CC(=O)/C=C/c2ccc(OC(=O)[C@@H](N)Cc3ccccc3)c(OC)c2)ccc1OC(=O)[C@@H](N)Cc1ccccc1.Cl.Cl [HCl-L-Phe-Cur] : 0.125
COc1cc(/C=C/C(=O)CC(=O)/C=C/c2ccc(OC(=O)[C@@H](C)NC(=O)OCc3ccccc3)c(OC)c2)ccc1OC(=O)[C@@H](C)NC(=O)OCc1ccccc1 : 0.5

Proceed to the following item.
Prompt line: Checklist item: MIC tested on Salmonella typhi ATCC19430, entry "COc1cc(/C=C/C(=O)CC(=O)/C=C/c2ccc(OC(=O)[C@@H](CCSC)NC(=O)OCc3ccccc3)c(OC)c2)ccc1OC(=O)[C@@H](CCSC)NC(=O)OCc1ccccc1" , value?
Response line: 0.5

----------
- Test system: carrageenan induced paw edema
- test_description: Anti-inflammatory activity: acute carrageenan induced paw edema in rats
- Assay type: in vivo, Wister rats
- test_parameters: 2 h; 10 mg kg^−1 indomethacin mol equivalent, intraperitoneally; mean ± SE
measurement_type: Mean edema thickness (mm)
Please respond with the number in mm and leave the unit unwritten.

COc1cc(/C=C/C(=O)CC(=O)/C=C/c2ccc(OC(=O)[C@@H](NC(=O)OCC3c4ccccc4-c4ccccc43)C(C)C)c(OC)c2)ccc1OC(=O)[C@@H](NC(=O)OCC1c2ccccc2-c2ccccc21)C(C)C : 1.05
COc1cc(/C=C/C(=O)CC(=O)/C=C/c2ccc(OC(=O)CNC(=O)OCC3c4ccccc4-c4ccccc43)c(OC)c2)ccc1OC(=O)CNC(=O)OCC1c2ccccc2-c2ccccc21 : 0.78

Could you now consider this next compound?
Prompt line: For "COc1cc(/C=C/C(=O)CC(=O)/C=C/c2ccc(OC(=O)[C@H](CCC(N)=O)NC(=O)OCc3ccccc3)c(OC)c2)ccc1OC(=O)[C@H](CCC(N)=O)NC(=O)OCc1ccccc1" , what is its reported Mean edema thickness?
Response line: 1.09

----------
- System: gastric mucosa
- test_description: Ulcerogenic liability (ulcer index)
- Type: in vivo, albino mice
- test_parameters: sum of the three values; orally, three successive days, 10 mg/kg indomethacin mol equivalent
measurement_type: Ulcer index
When you answer, write just the number.

Worked examples follow.
COc1cc(/C=C/C(=O)CC(=O)/C=C/c2ccc(OC(=O)[C@H](N)CCSC)c(OC)c2)ccc1OC(=O)[C@H](N)CCSC.Cl.Cl [HCl-D-Met-Cur] : 0
COc1cc(/C=C/C(=O)CC(=O)/C=C/c2ccc(OC(=O)[C@H](CCSC)NC(=O)OC(C)(C)C)c(OC)c2)ccc1OC(=O)[C@H](CCSC)NC(=O)OC(C)(C)C : 0
COc1ccc2c(c1)c(CC(=O)O)c(C)n2C(=O)c1ccc(Cl)cc1 [Indomethacin, reference compound] : 13.67
COc1cc(/C=C/C(=O)CC(=O)/C=C/c2ccc(OC(=O)[C@@H](N)CCSC)c(OC)c2)ccc1OC(=O)[C@@H](N)CCSC.Cl.Cl [HCl-L-Met-Cur] : 0

Prompt line: Sample "COc1cc(/C=C/C(=O)CC(=O)/C=C/c2ccc(OC(=O)[C@H](CCSC)NC(=O)OCc3ccccc3)c(OC)c2)ccc1OC(=O)[C@H](CCSC)NC(=O)OCc1ccccc1" — what was its Ulcer index?
Response line: 3.99

Prompt line: Follow-up item: "COc1cc(/C=C/C(=O)CC(=O)/C=C/c2ccc(OC(=O)[C@@H](CCSC)NC(=O)OCc3ccccc3)c(OC)c2)ccc1OC(=O)[C@@H](CCSC)NC(=O)OCc1ccccc1"
Response line: 0

Prompt line: What about "COc1cc(/C=C/C(=O)CC(=O)/C=C/c2ccc(OC(=O)CNC(=O)OCC3c4ccccc4-c4ccccc43)c(OC)c2)ccc1OC(=O)CNC(=O)OCC1c2ccccc2-c2ccccc21" ?
Response line: 0

Prompt line: Would you mind doing COc1cc(/C=C/C(=O)CC(=O)/C=C/c2ccc(OC(=O)C(C)NC(=O)OCc3ccccc3)c(OC)c2)ccc1OC(=O)C(C)NC(=O)OCc1ccccc1 (racemic) as well?
Response line: 4.67

Prompt line: Proceed to "COc1cc(/C=C/C(=O)CC(=O)/C=C/c2ccc(OC(=O)[C@@H](C)NC(=O)OCc3ccccc3)c(OC)c2)ccc1OC(=O)[C@@H](C)NC(=O)OCc1ccccc1"
Response line: 0

Prompt line: Also "COc1cc(/C=C/C(=O)CC(=O)/C=C/c2ccc(OC(=O)[C@H](CCSC)NC(=O)OCC3c4ccccc4-c4ccccc43)c(OC)c2)ccc1OC(=O)[C@H](CCSC)NC(=O)OCC1c2ccccc2-c2ccccc21" , if possible.
Response line: 0

Prompt line: Repeat with COc1cc(/C=C/C(=O)CC(=O)/C=C/c2ccc(OC(=O)CCN)c(OC)c2)ccc1OC(=O)CCN.Cl.Cl [HCl-β-Ala-Cur]
Response line: 0

Data credit: patent US10660967B2
